- experiment: Determination of aqueous solubility (HPLC)
- Format: physicochemical
- details: thermodynamic from solid; water, 24 hours, 23° C., at pH 8.5; near the detection limit
experimental-endpoint: solubility at 24 h

Record summary for C[C@@H]1c2ccccc2CCN1C(=O)c1cc2ncc(Br)cn2n1 [Free drug compound] : reported solubility at 24 h = < 10 µg/mL
